- Study Target: T1, biotinylated CRH (human and mouse, not fully specified; biotinylated, position not stated)
- T1 construct: also called Biotin-CRH; biotin-labeled CRH
- T1 peptide: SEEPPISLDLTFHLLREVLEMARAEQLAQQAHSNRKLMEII
- Experimental Protocol: competitive ELISA, coated 1st mAb; competitor PR006148
Property Name: % Inhibition (%)
Only the number, expressed in %, is required.

Below: 2 binders and their reported % Inhibition.
Binder	Observed Value
PR302069 (antibody, human IgG1, kappa, V domains shown, Humanized variant of PR301777) VH: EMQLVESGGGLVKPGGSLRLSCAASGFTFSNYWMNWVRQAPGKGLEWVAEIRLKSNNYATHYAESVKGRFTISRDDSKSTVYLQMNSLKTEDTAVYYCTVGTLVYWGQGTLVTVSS VL: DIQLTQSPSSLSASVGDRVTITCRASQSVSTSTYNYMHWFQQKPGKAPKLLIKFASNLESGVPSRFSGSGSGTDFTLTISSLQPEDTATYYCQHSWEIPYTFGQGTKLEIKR	95
PR302055 (antibody, human IgG1, kappa, V domains shown, Humanized variant of PR301777) VH: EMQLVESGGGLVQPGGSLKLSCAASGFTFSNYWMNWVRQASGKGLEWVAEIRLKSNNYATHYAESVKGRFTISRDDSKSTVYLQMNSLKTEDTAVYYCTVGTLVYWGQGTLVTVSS VL: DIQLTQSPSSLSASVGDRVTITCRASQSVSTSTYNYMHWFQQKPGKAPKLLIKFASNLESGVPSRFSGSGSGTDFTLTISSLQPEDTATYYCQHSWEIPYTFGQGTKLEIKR	95

Query PR302064 (antibody, human IgG1, kappa, V domains shown, Humanized variant of PR301777) VH: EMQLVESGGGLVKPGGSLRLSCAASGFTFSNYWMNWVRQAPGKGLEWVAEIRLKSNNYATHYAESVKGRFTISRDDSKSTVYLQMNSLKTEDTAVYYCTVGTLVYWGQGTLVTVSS VL: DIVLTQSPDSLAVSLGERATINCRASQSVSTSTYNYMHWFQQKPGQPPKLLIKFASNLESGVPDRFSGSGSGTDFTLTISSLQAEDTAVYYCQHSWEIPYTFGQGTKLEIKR yields % Inhibition of 94
